test system: native tau aggregates; test: TAU radioligand in vitro displacement assay ([3H]T808, autoradiography on human AD brain sections); assay type: binding; conditions: compound 1 uM, radioligand [3H]T808 10 nM
Experimental readout: % displacement of [3H]T808 (10 nM) at 1 uM (%)

Compound: CN(C)c1ccn2cc(-c3ccccc3)nc2c1
Unit string: %
Experimental value: 92
//
Compound: CN(CCF)c1ccn2cc(-c3ccccc3)nc2c1
Unit string: %
Experimental value: 90
//
Compound: FCCNc1ccn2cc(-c3ccccc3)nc2c1 [Example 1, 2,2,2-trifluoroacetate]
Unit string: %
Experimental value: 93
//
Compound: CNc1ccn2cc(-c3ccccc3)nc2c1
Unit string: %
Experimental value: 93
//
Compound: FC1CCN(c2ccn3cc(-c4ccccc4)nc3c2)CC1
Unit string: %
Experimental value: 82

---

tested on: native tau aggregates; experiment: TAU radioligand in vitro displacement assay ([3H]T808, autoradiography on human AD brain sections); assay type: binding; settings: compound 10 nM, radioligand [3H]T808 10 nM
Experimental readout: % displacement of [3H]T808 (10 nM) at 10 nM (%)

Solved entries:
Compound: CNc1ccn2cc(-c3cccc(SC)c3)nc2c1 [Example 136]
Experimental value: 20
--
Compound: CN(C)c1ccc(-c2cn3ccc(N(C)C)cc3n2)cc1 [Example 16]
Experimental value: 29
--
Compound: CNc1ccn2cc(-c3ccc4c(c3)NC(=O)CO4)nc2c1 [Example 119]
Experimental value: 46

(1) CNc1ccn2cc(-c3ccccc3)nc2c1 [Example 4]
(2) Cc1ccc(-c2cn3ccc(N(C)CCF)cc3n2)cc1 [Example 29]
Of the pair 1 and 2 , name the member with the lesser recorded % displacement of [3H]T808 (10 nM) at 10 nM. Returns: label corresponding to the selected item.
2

---

test system: native tau aggregates; assay: TAU radioligand in vitro displacement assay ([3H]T808, autoradiography on human AD brain sections); format: binding; conditions: compound 10 nM, radioligand [3H]T808 10 nM
Experimental readout: % displacement of [3H]T808 (10 nM) at 10 nM (%)

# count of solved cases: 3
Molecule: CNc1ccn2cc(-c3cccc(OCCF)c3)nc2c1 [Example 137]
Experimental value: 41
--
Molecule: Cc1cccc(-c2cn3ccc(N(C)CCF)cc3n2)c1 [Example 34]
Experimental value: 41
--
Molecule: Oc1ccc(-c2cn3ccc(N4CCC4)cc3n2)cc1 [Example 40]
Experimental value: 37

(P) COc1ccc(-c2cn3ccc(N4CCOCC4)cc3n2)cc1 [Example 13]
(Q) CSc1ccc(-c2cn3ccc(NCCF)cc3n2)cc1 [Example 79]
(R) COc1ccc(-c2cn3ccc(N4CC[C@@H](F)C4)cc3n2)cc1 [7 (R)]
(S) Cc1ccc(-c2cn3ccc(N4CCC(CCF)CC4)cc3n2)cc1 [Example 87]
Order the entries by their reported % displacement of [3H]T808 (10 nM) at 10 nM, beginning at the minimum. Reply with the item labels sorted in the order that was asked for.
S, R, Q, P

---

test system: native tau aggregates; test: TAU radioligand in vitro displacement assay ([3H]T808, autoradiography on human AD brain sections); assay type: binding; details: compound 10 nM, radioligand [3H]T808 10 nM
Experimental readout: % displacement of [3H]T808 (10 nM) at 10 nM (%)

Compound: COc1ccc(-c2cn3ccc(N4CCN(CCF)CC4)cc3n2)cc1
Experimental value: 33
//
Compound: CC(=O)O.CCOc1ccc(-c2cn3ccc(NC)cc3n2)cc1
Experimental value: 39
//
Compound: COc1ccc(-c2cn3ccc(N4CC4C)cc3n2)cc1 (stereo not drawn)
Experimental value: 44
